Source: patent US7906554B2

system: PC3; assay: Cell viability (CellTiter), concurrent dehydroequol and cisplatin; format: cell-based; settings: PC3, co-incubation with 2 uM dehydroequol; read-out: Cisplatin IC50 +2 uM dehydroequol
ENDPOINT NAME: IC50

Summary for this compound, N.N.[Cl][Pt][Cl] [Cisplatin, cis-diamminedichloroplatinum (II)] : IC50 is < 1 nM
